- test-details: growth suppression of PTEN-deleted HCT116, pilot screen, cell-based, HCT116 clonal line, CellTiter-Glo (AID 824);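 further: 0% = 20 µM Hyamine control and 100% = vehicle cell control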
- condition-set: 60 h, at 10 µM, hits give low values
Records with an inconclusive call do not appear.
So I've got a bunch of compounds here, and I need their viability values.
Give bare numbers, in %.

Would you please look over these solved cases?
> print(dat)
                                   compound  test.value
1     CN(Cc1ccccc1)C(=O)CCn1c(=O)oc2ccccc21        99.2
2  CCOC(=O)c1[nH]c2ccccc2c1NC(=O)c1ccc2c(c1)OCO2        85.6
3  NC(=O)c1ccsc1NC(=O)c1ccc(S(=O)(=O)N2CCCCC2)cc1        58.3
4        Cn1c(NC(=O)c2ccccc2)cc(=O)n(C)c1=O        93.8
5  Cc1ccc(-c2nc(CS(=O)CC(=O)N3CCN(c4ncccn4)CC3)c(C)o2)cc1 (configuration not stated)        90.2
6  Cc1cc(NC(=O)c2cc(C3CC3)on2)n(-c2ccccc2)n1        99.6

Respectfully, I request viability for each entry included below.
1. O=C(Nc1ccc(Cl)cc1)C1CC2CCCC(C1)C2=O (configuration not stated)
2. O=C(c1ccccc1S(=O)(=O)NCc1ccccc1)N1CCCC1
3. CC1(C)CC(=O)c2sc(NC(=O)C3CC3)nc2C1

**A:**
1: 99.2; 2: 98; 3: 106

Report viability for each item below.
1. Cc1ccc2c(c1)NC(=O)C(CC(=O)O)O2 (configuration not stated)
2. O=C(c1cccc(C(=O)N2CCN(c3ccccc3F)CC2)c1)N1CCN(c2ccccc2F)CC1
3. O=C(OCCN1C(=O)c2ccccc2C1=O)c1cc2ccccc2o1
4. COC(=O)CNC(=O)Cn1cnc2sc(C)c(S(=O)(=O)N3CCC(C)CC3)c2c1=O
5. CNC(=O)c1c(NC(=O)c2nc3ccccc3s2)sc2c1CCC2
6. CC(CCc1ccco1)NC(=O)Cn1nc(Cc2ccncc2)c2ccccc2c1=O (configuration not stated)
7. CCO/C(C)=C1\C(=O)N(CC)c2ccccc21
8. CC(=O)C1=C(C)NC(SCC(=O)c2ccccc2)=C(C#N)C1c1ccco1 (configuration not stated)

**A:**
99.7
54.9
99.1
99.2
61
92.7
97.2
56

I have 5 compounds here; please give me viability for each one.
1. COc1cc(C(=O)Nc2cc(C)c(OCC(=O)N3CCOCC3)c(C)c2)cc(OC)c1OC
2. O=C(c1cncc(Br)c1)N1CCN(c2ccc(N3CCOCC3)nn2)CC1
3. O=C(Nc1ccccc1)C1CC=CCC1C(=O)OCC1CCCO1 (configuration not stated)
4. COc1ccc(S(=O)(=O)N2CCC(C(=O)Nc3cccc(Cl)c3)CC2)cc1OC
5. Cc1ccc(N2C(=O)Nc3ccc(Br)cc3C2(O)C(=O)NCCCN(C)C)cc1C (configuration not stated)

**A:**
[90.4, 98.5, 102, 78, 98.7]

---

For each entry below, report its differential viability (reversal) value.
- test-details: reversal of MRP1-mediated doxorubicin resistance, pilot screen, H69AR cells, doxorubicin co-treatment (AID 601)
- condition-set: H69AR cells + 2 uM doxorubicin, CellTiter-Glo, 72 h; at 10 µM; hits give high values
Numbers only, in %.

Quick request: differential viability (reversal) for each listed item, please.
1. COc1cc(S(=O)(=O)NC2CCCCC2)ccc1Cl
2. Cn1c(=O)c2ncn(CC(=O)NCCOc3ccc(C(C)(C)C)cc3)c2n(C)c1=O
3. O=C(CCN1CCOCC1)Nc1cccc(Br)c1
4. CCOCCCNS(=O)(=O)c1ccc2c(c1)oc(=O)n2CC(=O)OCC

**A:**
7.43
-17.6
7.72
-8.29

// for each compound below, give its differential viability (reversal)
1. c1ccc(CNc2ccc3c(c2)ncn3C2CCCCC2)nc1
2. O=C(Nc1cccc2ccccc12)c1cnccn1
3. O=C(O)c1cc2c(s1)CCCC2
4. N#Cc1c(N)nc2c(c1-c1ccncc1)CCCCC2
5. COc1cc(C2C(C(=O)c3ccc(C)o3)=C(O)C(=O)N2c2cc(C)on2)cc(Br)c1O (configuration not stated)
6. O=C1N=C(N2CCOCC2)CS1

**A:**
1. 2.95
2. 12.5
3. -1.15
4. -3.37
5. 8.72
6. 5.3

Record differential viability (reversal) per entry; entries follow.
1. O=C(CSc1nnc(-c2ccc(Br)o2)n1Cc1ccccc1)c1ccccc1F
2. CCCn1c(=O)[nH]c(=O)c2[nH]cnc21

**A:**
[-11.2, 3.64]

---

- test-details: viability gain of MRP-1-high H69AR cells under doxorubicin, pilot screen, MRP-1 activator project, CellTiter-Glo, duplicate (AID 807);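 further: compound pretreatment 18-22 h then 72 h combined with doxorubicin; 0% = doxorubicin alone and 100% = vehicle without doxorubicin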
- condition-set: H69AR viability with doxorubicin, CellTiter-Glo luminescence; at 10 µM; hits give high values
Activity calls are given as the source filed them.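 The calls were made as follows: active = viability increase at or above a cutoff of the median across tested compounds plus 3 SD (cut at about 8.5% in these data, passing the limit was not always enough); inconclusive = some gains above the cutoff, reason not given; inactive = the rest.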
I'd appreciate it if you could supply viability increase values for the items below.

> print(dat)
                                   compound         test.value
1         COC(=O)C1=C(C)N(Cc2cccnc2)C(=O)C1  -1.77% (inactive)
2  CC1=C(C(=O)OC2CCCCCCC2)C(c2ccc(O)cc2)NC(=O)N1 (centres undefined)  -0.32% (inactive)
3  O=C(CCS(=O)(=O)c1ccccc1)Nc1nc2c(s1)CCCC2  -8.89% (inactive)

I have 2 compounds here; please give me viability increase for each one.
1. CCOC(=O)N1CCN(C(=O)c2ccc3c(c2)N(CC)CCS3)CC1
2. Cc1c(C(=O)NCc2ccc3c(c2)OCO3)oc2ccc(S(=O)(=O)N3CCCC3)cc12

**A:**
-0.26% (inactive)
-0.63% (inactive)

---

Consider the following compounds; for each one, report its growth inhibition.
- test-details: Restrictive medium S. cerevisiae growth inhibition, OD615, pilot screen of yeast lifespan reduction project, restrictive growth control (AID 706);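 further: modified DeaD lifespan yeast strain shifted to restrictive glucose medium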
- condition-set: OD615, 48 h, at 10 µM, hits give high values
Active and inactive are the calls of the source.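 How the source made its calls: active means growth inhibition above a set limit, 3 SD over mean compound inhibition, in both replicates (cut at about 43% in these data); inconclusive means above the limit in only one replicate; inactive means at or below the limit in both replicates.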

> print(dat)
                                    compound         test.value
 1  CCOc1ccc(C(=O)Nc2c3c(nn2-c2ccc(C)cc2)CS(=O)C3)cc1OCC (configuration not stated)  -3.32% (inactive)
 2  COc1ccccc1N(CC(=O)Nc1c(C)cccc1C)S(C)(=O)=O  -8.78% (inactive)
 3  N#Cc1cn(CC(=O)NCC2CCCO2)c2ccccc12 (configuration not stated)     -3% (inactive)
 4              Cc1ccc(S(=O)(=O)n2ccnc2)cc1C  -8.12% (inactive)
 5  O=C(O)c1cccc(NS(=O)(=O)c2cccc3cccnc23)c1  -3.79% (inactive)
 6            Nc1cccc(C(=O)Nc2ccc(N)cc2Cl)c1  -7.93% (inactive)
 7  COCCOC(=O)C1=C(C)NC2=C(C(=O)CCC2)C1c1ccc2c(c1)OCO2 (configuration not stated)  -17.8% (inactive)
 8           O=C(CCCOc1ccccc1)N1CCCc2ccccc21  -2.99% (inactive)
 9  O=C(Cn1cnc2c(cnn2-c2ccccc2)c1=O)N1CCOCC1  -3.03% (inactive)
10  COc1ccc(OC)c(CCNC(=O)C2CCN(c3nnc(-n4cccc4)s3)CC2)c1  -20.5% (inactive)

Consider the following items and state reported growth inhibition for each.
1. COc1ccc(-c2nc(CS(=O)CC(=O)NCc3ccco3)c(C)o2)cc1OC (configuration not stated)
2. CCN(CCNC(=O)C1CCCN(S(=O)(=O)c2cnc[nH]2)C1)c1ccccc1 (configuration not stated)
3. O=C(c1ccc(CN2CCOCC2)cc1)N1CCN(Cc2ccccc2)CC1
4. CSc1nc2c(c(=O)n1-c1ccccc1)SCC2

**A:**
-5.82% (inactive)
-6.85% (inactive)
-5.85% (inactive)
-8.25% (inactive)

---

- test-details: viability gain of MRP-1-high H69AR cells under doxorubicin, pilot screen, MRP-1 activator project, CellTiter-Glo, duplicate (AID 807);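 further: compound pretreatment 18-22 h then 72 h combined with doxorubicin; 0% = doxorubicin alone and 100% = vehicle without doxorubicin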
- condition-set: H69AR viability with doxorubicin, CellTiter-Glo luminescence; at 10 µM; hits give high values
quantity-measured: viability increase (%)
Answers are plain numbers, in %.

In the examples that follow, each entry is paired with its recorded viability increase.
> print(dat)
                                   molecule   quantity.measured  test.value
1  Cc1ccc(Cn2c(Sc3nccc(C)n3)nc3c2c(=O)[nH]c(=O)n3C)cc1  viability increase        -2.6
2  O=C(c1c(Cl)nc2sccn12)N1CCN(c2cccc(Cl)c2)CC1  viability increase       -4.96
3  COc1ccc(C2CC(c3ccc(F)cc3)Nc3nc(N)nn32)cc1 (stereo not drawn)  viability increase        0.02

Hey, can you go through the list below and give me viability increase for every item?
1. CCC(=O)Nc1cccc(NC(=O)c2cc3ccccc3o2)c1
2. COc1ccccc1OCCNC(=O)c1ccc(S(=O)(=O)N(C)C)cc1
3. CCOC(=O)C1Cc2ccccc2C(=O)O1 (stereo not drawn)
4. Cc1cccc(OCCOCCSc2ncccn2)c1
5. O=C(CSc1nnc(-c2cccnc2)n1Cc1ccco1)c1ccc(Br)cc1
6. CCCn1c(CN(Cc2ccccc2)Cc2ccccc2)nc2c1c(=O)n(C)c(=O)n2C
7. O=C(Cn1c(=O)oc2ccccc21)N1CCN(c2ccc(N3CCOCC3)nn2)CC1
8. CCN=C(NCC)SC1CC(=O)N(c2cccc(OC)c2)C1=O (stereo not drawn)

**A:**
1: -1.82; 2: -1.91; 3: -0.24; 4: -1.63; 5: -1.99; 6: 0.21; 7: -2.65; 8: -1.43
